# Tested on: multiple drug resistant acute promyelocytic leukemia cells (HL-60/RV)
# method_description: In vitro cytotoxicity, CellTiter-Glo 96 h, HL60/RV
# assay_setup: Homo sapiens, HL-60, read-out: Cytotoxic potency (IC50 class), HL60/RV
Can you tell me IC50 for the items I'm about to list?

INPUT: # IC50 lookup, item CC[C@@]1(O)C(=O)OCc2c1cc1n(c2=O)Cc2c-1nc1cc3c(cc1c2CNC1CCCCC1)OCO3 [Compound 5d]
OUTPUT: 1 to 10 nM

INPUT: Endpoint output: IC50 of CC[C@@]1(O)C(=O)OCc2c1cc1n(c2=O)Cc2c-1nc1cc3c(cc1c2CNCCN(C)CCO)OCO3 [Compound 5w] . Value?
OUTPUT: 10 to 100 nM

INPUT: Reported IC50 for CC[C@@]1(O)C(=O)OCc2c1cc1n(c2=O)Cc2c-1nc1cc3c(cc1c2C1CCCC1)OCO3 [Compound 6i] : what is it?
OUTPUT: 1 to 10 nM

INPUT: For the molecule shown here, CC[C@@]1(O)C(=O)OCc2c1cc1n(c2=O)Cc2c-1nc1cc3c(cc1c2CNCc1ccccc1)OCO3 [Compound 5j] , give the reported IC50.
OUTPUT: 1 to 10 nM

INPUT: Given CC[C@@]1(O)C(=O)OCc2c1cc1n(c2=O)Cc2c-1nc1cc3c(cc1c2CNCC1CCNCC1)OCO3 [Compound 5u] , state its recorded IC50.
OUTPUT: 100 to 1000 nM

INPUT: Which IC50 reading was recorded for the molecule CCCCCCc1c2c(nc3cc4c(cc13)OCO4)-c1cc3c(c(=O)n1C2)COC(=O)[C@]3(O)CC [Compound 6k] ?
OUTPUT: 10 to 100 nM

INPUT: State the recorded IC50 for this entry: CC[C@@]1(O)C(=O)OCc2c1cc1n(c2=O)Cc2c-1nc1cc3c(cc1c2CN(C)C1CCCC[C@H]1NC)OCO3 (stereo partly drawn) [Compound 5aa]
OUTPUT: 100 to 1000 nM

INPUT: So what's the measured IC50 for this one? CC[C@@]1(O)C(=O)OCc2c1cc1n(c2=O)Cc2c-1nc1cc3c(cc1c2CNCCOCCOCCN)OCO3 [Compound 5y]
OUTPUT: 10 to 100 nM

INPUT: Given the molecule CC[C@@]1(O)C(=O)OCc2c1cc1n(c2=O)Cc2c-1nc1cc3c(cc1c2C(C)C)OCO3 [Compound 6c] , what is its reported IC50?
OUTPUT: 1 to 10 nM

INPUT: # get_value(readout='IC50', item= CC[C@@]1(O)C(=O)OCc2c1cc1n(c2=O)Cc2c-1nc1cc3c(cc1c2CNCC(C)C)OCO3 [Compound 5i] )
OUTPUT: 1 to 10 nM

INPUT: Returns the measured IC50 for the input molecule. Input: CC[C@@]1(O)C(=O)OCc2c1cc1n(c2=O)Cc2c-1nc1cc3c(cc1c2CN(C)CCN(C)C)OCO3 [Compound 5t]
OUTPUT: 10 to 100 nM

INPUT: Quick one: IC50 for CCNCc1c2c(nc3cc4c(cc13)OCO4)-c1cc3c(c(=O)n1C2)COC(=O)[C@]3(O)CC [Compound 5a] ?
OUTPUT: 1 to 10 nM

INPUT: Look at this molecule and give its reported IC50. CC[C@@]1(O)C(=O)OCc2c1cc1n(c2=O)Cc2c-1nc1cc3c(cc1c2C)OCO3 [Compound 6p]
OUTPUT: 1 to 10 nM

INPUT: Query: IC50; subject: CC[C@@]1(O)C(=O)OCc2c1cc1n(c2=O)Cc2c-1nc1cc3c(cc1c2-c1ccccc1)OCO3 [Compound 6d]
OUTPUT: 1 to 10 nM

INPUT: What value of measured IC50 is listed for CC[C@@]1(O)C(=O)OCc2c1cc1n(c2=O)Cc2c-1nc1cc3c(cc1c2CN1CCOCC1)OCO3 [Compound 5g] ?
OUTPUT: 1 to 10 nM

Values compiled from patent US20190343828A1.
